Sourced from paper PMC7819943

Each record here notes measured binding signal.
Target: OsSMF1 (Oryza sativa, UniProt Q6ZLB0 1-436)
Sequence: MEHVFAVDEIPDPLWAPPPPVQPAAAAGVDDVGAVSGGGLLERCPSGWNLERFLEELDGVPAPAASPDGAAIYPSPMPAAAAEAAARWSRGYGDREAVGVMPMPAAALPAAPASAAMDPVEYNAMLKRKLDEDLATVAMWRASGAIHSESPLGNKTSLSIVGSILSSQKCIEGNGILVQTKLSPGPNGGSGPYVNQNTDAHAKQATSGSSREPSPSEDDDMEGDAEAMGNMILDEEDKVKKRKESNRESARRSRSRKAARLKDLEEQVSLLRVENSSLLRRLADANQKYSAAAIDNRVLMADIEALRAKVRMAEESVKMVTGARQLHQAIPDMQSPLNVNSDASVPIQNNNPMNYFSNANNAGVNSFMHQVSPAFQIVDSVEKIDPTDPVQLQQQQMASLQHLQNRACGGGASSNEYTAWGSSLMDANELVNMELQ
Test: protein-binding microarray (RPBM); PBS, 2% BSA, 51.3 ng/ul salmon testes DNA, 50 uM zinc acetate, 200 nM TF, 25 C, 1 h; high values mean tight binding
Conditions: protein: recombinant; tags: N-terminal polyhistidine and DsRed monomer fusion (pET32a); chain copies: 2; label: CyDye5-dUTP incorporated in the synthesized complementary strand; 3' TTTTT single-stranded linker to array surface; dsDNA, one strand shown
In all, about 39,000 sequences were measured (“fluorescence intensity (a.u.)”: median about 4,300, highest 2% from about 39,000 on). The sample as a whole holds a higher share of the highest values than the screen did.
reportedEndpoint: binding signal

CGCGGATCGGCCGCGAGGCGCACGTGGACATCACCACCAACGGAGTCACCTAGTGCAG 4220 fluorescence intensity (a.u.)
GGTAGCTGATACAGGTATGCAGACGAAAGATCACACCTATCGGAGTCACCTAGTGCAG 32500 fluorescence intensity (a.u.)
TCTTTAGTCCCGGTTCCTATTTAAACCGGGATTATTGTGGCGGAGTCACCTAGTGCAG 47900 fluorescence intensity (a.u.)
GGAGTAGATATTATCACTAGCTAGTCACACGGACACAGTGCGGAGTCACCTAGTGCAG 4900 fluorescence intensity (a.u.)
AACACGAAAATGAAAGGGAGGGGCTTTCCTTAGCGATTAACGGAGTCACCTAGTGCAG 3830 fluorescence intensity (a.u.)
GATAAAGGTCTCTATTTGCATGACATATATCGTTACTATACGGAGTCACCTAGTGCAG 3570 fluorescence intensity (a.u.)
TCACCAATCACCTGCCCTCACACCAACACGCCACGCGAACCGGAGTCACCTAGTGCAG 3750 fluorescence intensity (a.u.)
GAGACCGTTCTGAATTTCTGAGACTGATACATATTTGATGCGGAGTCACCTAGTGCAG 40300 fluorescence intensity (a.u.)
AATGTCCCATCTTTCGTGTGTAAGGCACGTTAGTCTCAGGCGGAGTCACCTAGTGCAG 4290 fluorescence intensity (a.u.)
AAGTGCCTACCAAGCCAGCATCGTGTCATAGCCGGAGCATCGGAGTCACCTAGTGCAG 3730 fluorescence intensity (a.u.)
GACTTGTCCATGCATGCATGCATGACTTGTGTTCAGCCACCGGAGTCACCTAGTGCAG 3700 fluorescence intensity (a.u.)
CTCCGATGGAAGCCACGTCCTGTCCAATTCCCAAACTAACCGGAGTCACCTAGTGCAG 4220 fluorescence intensity (a.u.)
CAACGGCTATGAGCTGTCACACACTCACAGTAGTACTCCGCGGAGTCACCTAGTGCAG 3850 fluorescence intensity (a.u.)
TGCTTCTGATACTCACGTATATTTCATACACACGTGAATGCGGAGTCACCTAGTGCAG 3210 fluorescence intensity (a.u.)
TCTCCATAAGAGCACCCACCAACTCAGCCTCTCCTCCCATCGGAGTCACCTAGTGCAG 3340 fluorescence intensity (a.u.)
GGGCAGCGCTAACCCAAAGCTCCTGCGATTCCAAACCGACCGGAGTCACCTAGTGCAG 64800 fluorescence intensity (a.u.)
ACGAAACCGCACAAAAGCCGGTGAATTTTCCCGTAATTTGCGGAGTCACCTAGTGCAG 8780 fluorescence intensity (a.u.)
CCGAAGGAGTACGTGCCAAGTCGGCCCATCAGGCCCACGTCGGAGTCACCTAGTGCAG 4010 fluorescence intensity (a.u.)
CGCTGTGGTGTGCAGCGGCGGTGCCACGTCCCTATTTAAACGGAGTCACCTAGTGCAG 10900 fluorescence intensity (a.u.)
TTCTTCGAGGACCACATGCGTGAGTGGATGACGGAGTTCCCGGAGTCACCTAGTGCAG 3950 fluorescence intensity (a.u.)
CATGTTCGTGCGCCGTCACTACAGGCACCTCGCTGTCAACCGGAGTCACCTAGTGCAG 40100 fluorescence intensity (a.u.)
TAAACGCAAATTCTATATCACAACCACGTAAGTTTAGTAGCGGAGTCACCTAGTGCAG 3870 fluorescence intensity (a.u.)
TAATTCCAAGCTTGTTTCACCGACCTGCCAAACTCGATTGCGGAGTCACCTAGTGCAG 3270 fluorescence intensity (a.u.)
TCGCAACAACAAGAATGATGATGGCATGACGAAAATGCTACGGAGTCACCTAGTGCAG 3570 fluorescence intensity (a.u.)
CTCAAAGCATTATAAAACTTGCTGGCTTTGTCCCCTTCATCGGAGTCACCTAGTGCAG 3250 fluorescence intensity (a.u.)
CACTCAAAATCTCTTTCGTGTCCACCTCACCTTGCACCACCGGAGTCACCTAGTGCAG 4870 fluorescence intensity (a.u.)
CCAGTTAGGCCCACGAGTAGGTGGAACGACCACCTCACGGCGGAGTCACCTAGTGCAG 3710 fluorescence intensity (a.u.)
GAATGAAAACTCAGGGGTAAGTAGGAGATGACGCAAAGTTCGGAGTCACCTAGTGCAG 3580 fluorescence intensity (a.u.)
CTAGCCACTGAAGCATGGGTCATGATACAGCAGTTAATATCGGAGTCACCTAGTGCAG 3440 fluorescence intensity (a.u.)
TTAATCACTTCTCAAACTTTTAATGCAATGACTTGTGAACCGGAGTCACCTAGTGCAG 3420 fluorescence intensity (a.u.)
GGCCCCGTCGACGCTGTGCACCAAACACAATAAAGACATGCGGAGTCACCTAGTGCAG 3430 fluorescence intensity (a.u.)
GTCTAGCTAGTGCAATTAGAGTAACCTATATATCACACAACGGAGTCACCTAGTGCAG 52200 fluorescence intensity (a.u.)
TAAGTGGACCTATAGGTGCACACGTGGGGAGAGGGGCGTGCGGAGTCACCTAGTGCAG 5690 fluorescence intensity (a.u.)
TTGAAACGTAACACTTGATATATGTATACATTATCCAACCCGGAGTCACCTAGTGCAG 3150 fluorescence intensity (a.u.)
TGCGCCGTCTGCGTCAGCGTGCCTCGTCGCAGTCGCAGGCCGGAGTCACCTAGTGCAG 6400 fluorescence intensity (a.u.)
CTTAGTCGCCATTTTCTTCCCATATCCACGCGCCACGTGGCGGAGTCACCTAGTGCAG 25100 fluorescence intensity (a.u.)
TCCTTTCGTTATCTGTACGGCAGTGACGTCCACGACTCGACGGAGTCACCTAGTGCAG 4340 fluorescence intensity (a.u.)
